# target_desc: T1, human TGFβ1 (human, UniProt P01137 279-390)
# T1 construct: also called TGFβ1 homodimer
# assay_notes: Biacore off-rate vs wt GC1008, 50 nM
reported_metric: kd var/kd wt
Lab note: record just the number, no unit beside it.

# lookup: kd var/kd wt of Y27N (antibody, V domains shown, GC1008 IgG4 variant) VH: QVQLVQSGAEVKKPGSSVKVSCKASGNTFSSNVISWVRQAPGQGLEWMGGVIPIVDIANYAQRFKGRVTITADESTSTTYMELSSLRSEDTAVYYCASTLGLVLDAMDYWGQGTLVTVSS VL: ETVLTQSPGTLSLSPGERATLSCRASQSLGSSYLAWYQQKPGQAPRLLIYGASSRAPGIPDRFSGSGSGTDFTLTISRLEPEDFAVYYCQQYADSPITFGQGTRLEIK
1.3

# lookup: kd var/kd wt of I54M (antibody, V domains shown, GC1008 IgG4 variant) VH: QVQLVQSGAEVKKPGSSVKVSCKASGYTFSSNVISWVRQAPGQGLEWMGGVIPMVDIANYAQRFKGRVTITADESTSTTYMELSSLRSEDTAVYYCASTLGLVLDAMDYWGQGTLVTVSS VL: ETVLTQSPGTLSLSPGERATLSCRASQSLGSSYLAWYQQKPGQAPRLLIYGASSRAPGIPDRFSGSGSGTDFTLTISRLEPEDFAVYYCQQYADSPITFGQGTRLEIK
1.5

# lookup: kd var/kd wt of N32V (antibody, V domains shown, GC1008 IgG4 variant) VH: QVQLVQSGAEVKKPGSSVKVSCKASGYTFSSVVISWVRQAPGQGLEWMGGVIPIVDIANYAQRFKGRVTITADESTSTTYMELSSLRSEDTAVYYCASTLGLVLDAMDYWGQGTLVTVSS VL: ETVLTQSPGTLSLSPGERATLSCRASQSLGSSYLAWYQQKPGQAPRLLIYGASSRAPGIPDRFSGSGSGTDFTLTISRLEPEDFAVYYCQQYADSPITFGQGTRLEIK
1.5
